Taken from PubChem BioAssay AID1963833.

test system: 883617-216-R-J1-PDC complex spheroid viability; assay: Anticancer human tumor 883617-216-R-J1-PDC patient-derived bladder carcinoma cell line growth inhibition [POLQ]; conditions: second compound 1 µM; first compound 3.16 µM; active compounds read low
The following ranges of viability, T/C define the classes used here: lower level = under 60%, middle level = from 60% up to 90%, upper level = 90% and over

Past entries and their recorded results:
Molecule: C#Cc1c(F)ccc2cc(O)cc(-c3ncc4c(N5CC6CCC(C5)N6)nc(OCC56CCCN5CC(F)C6)nc4c3F)c12 (stereo not drawn) + COC1C(OC(N)=O)C(O)C(Oc2ccc3c(O)c(NC(=O)c4ccc(O)c(CC=C(C)C)c4)c(=O)oc3c2C)OC1(C)C
Label: middle level
//
Molecule: CCCS(=O)(=O)Nc1ccc(F)c(C(=O)c2c[nH]c3ncc(-c4ccc(Cl)cc4)cc23)c1F + COC1C(OC(N)=O)C(O)C(Oc2ccc3c(O)c(NC(=O)c4ccc(O)c(CC=C(C)C)c4)c(=O)oc3c2C)OC1(C)C
Label: upper level
//
Molecule: COc1cc2cc(C(=O)CCC(=O)O)sc2cc1OC + Cc1cccc(N(C)C(=O)C2C(O)CCN2c2nc(C)cc(C(F)(F)F)c2C#N)c1
Label: upper level
//
Molecule: COc1ccc([C@@H](O)c2cc(-c3ncnc4cc(N5CCOCC5)ccc34)c(F)cc2Cl)nn1 + Cc1cccc(N(C)C(=O)C2C(O)CCN2c2nc(C)cc(C(F)(F)F)c2C#N)c1
Label: lower level
//
Molecule: CC1COCCN1c1cc(C2(O)CC3CCC(C2)O3)c2cnn(-c3ccn[nH]3)c2n1 (stereo not drawn) + Cc1cccc(N(C)C(=O)C2C(O)CCN2c2nc(C)cc(C(F)(F)F)c2C#N)c1
Label: lower level

input: Band of CC1COCCN1c1cc(-c2ccnn2C)c2ccnc(-c3ccn[nH]3)c2n1 (stereo not drawn) + Nc1ccc(C#CCN(C(=O)Cc2ncc(C(F)(F)F)cc2C(F)(F)F)c2ccc(F)cc2)nn1 ?
output: lower level

input: Further, for O=c1[nH]cc(F)c(=O)[nH]1 + Nc1ccc(C#CCN(C(=O)Cc2ncc(C(F)(F)F)cc2C(F)(F)F)c2ccc(F)cc2)nn1 ?
output: upper level

input: Further, for CCc1cc2c(N3CCc4c(cc(Cn5ccnc5)cc4-c4cn(C)nc4C(F)(F)F)C3=O)ccnc2c(OC)n1 + Cc1cccc(N(C)C(=O)C2C(O)CCN2c2nc(C)cc(C(F)(F)F)c2C#N)c1 ?
output: middle level

input: Further, for COc1cc(C2c3cc4c(cc3C(OC3OC5COC(C)OC5C(O)C3O)C3COC(=O)C23)OCO4)cc(OC)c1O (stereo not drawn) + COC1C(OC(N)=O)C(O)C(Oc2ccc3c(O)c(NC(=O)c4ccc(O)c(CC=C(C)C)c4)c(=O)oc3c2C)OC1(C)C ?
output: lower level

input: Further, for CC(C)n1c(=O)n(C)c2cnc3cc(F)c(-c4ccc(OCCCN5CCCCC5)nc4)cc3c21 + COC1C(OC(N)=O)C(O)C(Oc2ccc3c(O)c(NC(=O)c4ccc(O)c(CC=C(C)C)c4)c(=O)oc3c2C)OC1(C)C ?
output: upper level

input: Further, for O=c1[nH]cc(F)c(=O)[nH]1 + Cc1cccc(N(C)C(=O)C2C(O)CCN2c2nc(C)cc(C(F)(F)F)c2C#N)c1 ?
output: middle level

input: Further, for CC1COCCN1c1cc(C2(S(C)(=N)=O)CC2)nc(-c2ccnc3[nH]ccc23)n1 (stereo not drawn) + Cc1cccc(N(C)C(=O)C2C(O)CCN2c2nc(C)cc(C(F)(F)F)c2C#N)c1 ?
output: lower level

----------
Tested on: 883617-216-R-J1-PDC complex spheroid viability
Test: Anticancer human tumor 883617-216-R-J1-PDC cell line growth inhibition [POLQ];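 note: spheroids exposed to compounds for seven days before readout; 100% = DMSO vehicle control viability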
Details: second compound 3.16 µM; first compound 0.316 µM; active compounds read low
Description: Multicellular complex tumor spheroid response to Polymerase (POL) inhibitors (novobiocin, ART-558, RP6685) in combination with a variety of drugs and investigational agents in selected tumor cell lines The POL inhibitors (novobiocin, ART-558, and RP6685) were evaluated both individually and in combination with standard of care and investigational anticancer small molecules within a complex spheroid model of solid tumors. . […]
Recorded Endpoint: viability, T/C (%)
Reply numerically in %, unit not repeated.

Example entries begin here.
Molecule: C=CCn1c(=O)c2cnc(Nc3ccc(N4CCN(C)CC4)cc3)nc2n1-c1cccc(C(C)(C)O)n1 + Cc1cccc(N(C)C(=O)C2C(O)CCN2c2nc(C)cc(C(F)(F)F)c2C#N)c1
Target Entity: 883617-216-R-J1-PDC complex spheroid viability
Unit Annotation: %
viability, T/C: 100
//
Molecule: CCc1cc2c(N3CCc4c(cc(Cn5ccnc5)cc4-c4cn(C)nc4C(F)(F)F)C3=O)cc(C)nc2c(OC)n1 + COC1C(OC(N)=O)C(O)C(Oc2ccc3c(O)c(NC(=O)c4ccc(O)c(CC=C(C)C)c4)c(=O)oc3c2C)OC1(C)C
Target Entity: 883617-216-R-J1-PDC complex spheroid viability
Unit Annotation: %
viability, T/C: 115
//
Molecule: CCc1cc2c(N3CCc4c(cc(Cn5ccnc5)cc4-c4cn(C)nc4C(F)(F)F)C3=O)ccnc2c(OC)n1 + COC1C(OC(N)=O)C(O)C(Oc2ccc3c(O)c(NC(=O)c4ccc(O)c(CC=C(C)C)c4)c(=O)oc3c2C)OC1(C)C
Target Entity: 883617-216-R-J1-PDC complex spheroid viability
Unit Annotation: %
viability, T/C: 106
//
Molecule: CC1COCCN1c1cc(C2(S(C)(=N)=O)CC2)nc(-c2ccnc3[nH]ccc23)n1 (stereo unspecified) + COC1C(OC(N)=O)C(O)C(Oc2ccc3c(O)c(NC(=O)c4ccc(O)c(CC=C(C)C)c4)c(=O)oc3c2C)OC1(C)C
Target Entity: 883617-216-R-J1-PDC complex spheroid viability
Unit Annotation: %
viability, T/C: 97.1
//
Molecule: O=C(Nc1ccc(O)c(NS(=O)(=O)c2ccc(F)cc2)c1)c1ccc(-c2ccccc2)cc1 + COC1C(OC(N)=O)C(O)C(Oc2ccc3c(O)c(NC(=O)c4ccc(O)c(CC=C(C)C)c4)c(=O)oc3c2C)OC1(C)C
Target Entity: 883617-216-R-J1-PDC complex spheroid viability
Unit Annotation: %
viability, T/C: 97.3
//
Molecule: CCc1c2c(nc3ccc(O)cc13)-c1cc3c(c(=O)n1C2)COC(=O)[C@]3(O)CC + COC1C(OC(N)=O)C(O)C(Oc2ccc3c(O)c(NC(=O)c4ccc(O)c(CC=C(C)C)c4)c(=O)oc3c2C)OC1(C)C
Target Entity: 883617-216-R-J1-PDC complex spheroid viability
Unit Annotation: %
viability, T/C: 35
//
Molecule: CCCS(=O)(=O)Nc1ccc(F)c(C(=O)c2c[nH]c3ncc(-c4ccc(Cl)cc4)cc23)c1F + Cc1cccc(N(C)C(=O)C2C(O)CCN2c2nc(C)cc(C(F)(F)F)c2C#N)c1
Target Entity: 883617-216-R-J1-PDC complex spheroid viability
Unit Annotation: %
viability, T/C: 106
//
Molecule: CCc1cc2c(N3CCc4c(cc(Cn5ccnc5)cc4-c4cn(C)nc4C(F)(F)F)C3=O)ccnc2c(OC)n1 + Nc1ccc(C#CCN(C(=O)Cc2ncc(C(F)(F)F)cc2C(F)(F)F)c2ccc(F)cc2)nn1
Target Entity: 883617-216-R-J1-PDC complex spheroid viability
Unit Annotation: %
viability, T/C: 110

input: Missing value: viability, T/C, 883617-216-R-J1-PDC complex spheroid viability, entry CCc1cc2c(N3CCc4c(cc(Cn5ccnc5)cc4-c4cn(C)nc4C(F)(F)F)C3=O)cc(C)nc2c(OC)n1 + Cc1cccc(N(C)C(=O)C2C(O)CCN2c2nc(C)cc(C(F)(F)F)c2C#N)c1 . Fill in?
output: 102

input: Further, for O=C(Nc1ccc(O)c(NS(=O)(=O)c2ccc(F)cc2)c1)c1ccc(-c2ccccc2)cc1 + Cc1cccc(N(C)C(=O)C2C(O)CCN2c2nc(C)cc(C(F)(F)F)c2C#N)c1 ?
output: 85.3

input: Further, for CC1COCCN1c1cc(-c2ccnn2C)c2ccnc(-c3ccn[nH]3)c2n1 (stereo unspecified) + Nc1ccc(C#CCN(C(=O)Cc2ncc(C(F)(F)F)cc2C(F)(F)F)c2ccc(F)cc2)nn1 ?
output: 56.1

----------
test system: 883617-216-R-J1-PDC complex spheroid viability; assay: Anticancer human tumor 883617-216-R-J1-PDC cell line growth inhibition [POLQ]; details: second compound 0.0316 µM; first compound 10 µM; active compounds read low;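 note: spheroids exposed to compounds for seven days before readout; 100% = DMSO vehicle control viability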
Each record here notes measured viability, T/C.

Molecule: O=C(Nc1ccc(O)c(NS(=O)(=O)c2ccc(F)cc2)c1)c1ccc(-c2ccccc2)cc1 + COC1C(OC(N)=O)C(O)C(Oc2ccc3c(O)c(NC(=O)c4ccc(O)c(CC=C(C)C)c4)c(=O)oc3c2C)OC1(C)C
Recorded Endpoint: viability, T/C
Reported Measurement: 64.9%
--
Molecule: CNCc1ccc(-c2[nH]c3cc(F)cc4c3c2CCNC4=O)cc1 + Nc1ccc(C#CCN(C(=O)Cc2ncc(C(F)(F)F)cc2C(F)(F)F)c2ccc(F)cc2)nn1
Recorded Endpoint: viability, T/C
Reported Measurement: 92.1%
--
Molecule: O=C(c1cc(Cc2n[nH]c(=O)c3ccccc23)ccc1F)N1CCN(C(=O)C2CC2)CC1 + COC1C(OC(N)=O)C(O)C(Oc2ccc3c(O)c(NC(=O)c4ccc(O)c(CC=C(C)C)c4)c(=O)oc3c2C)OC1(C)C
Recorded Endpoint: viability, T/C
Reported Measurement: 62.9%
--
Molecule: CC(C)n1c(=O)n(C)c2cnc3cc(F)c(-c4ccc(OCCCN5CCCCC5)nc4)cc3c21 + Nc1ccc(C#CCN(C(=O)Cc2ncc(C(F)(F)F)cc2C(F)(F)F)c2ccc(F)cc2)nn1
Recorded Endpoint: viability, T/C
Reported Measurement: 75.6%

input: What does the data say about its viability, T/C? Entry: COc1cc2cc(C(=O)CCC(=O)O)sc2cc1OC + Nc1ccc(C#CCN(C(=O)Cc2ncc(C(F)(F)F)cc2C(F)(F)F)c2ccc(F)cc2)nn1
output: 104%
